Assay Target: T1, ZFP SBS#1068 (synthetic)
T1 chain: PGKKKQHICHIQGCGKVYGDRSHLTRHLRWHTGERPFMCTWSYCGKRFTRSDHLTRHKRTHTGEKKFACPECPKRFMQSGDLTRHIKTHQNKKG
Experiment: EMSA
Protocol Conditions: tags: MBP fusion
Reported Endpoint: Kd (nM)
Express your answer in nM, writing the number without its unit.

I'd like to know its Kd. The binder in question is GCAGGGGGC (dsDNA) DNA 1: GCAGGGGGC DNA 2: GCCCCCTGC
2.05
